Measured % Ctrl, FLT3, listed per entry.
- study.target: kinases (Homo sapiens, UniProt P36888)
- Construct: purchased Eurofins/DiscoveRx; host or cells: E. coli BL21-derived host (T7 phage display) for most kinases; HEK-293 for the rest
- Sequence (P36888 27-993): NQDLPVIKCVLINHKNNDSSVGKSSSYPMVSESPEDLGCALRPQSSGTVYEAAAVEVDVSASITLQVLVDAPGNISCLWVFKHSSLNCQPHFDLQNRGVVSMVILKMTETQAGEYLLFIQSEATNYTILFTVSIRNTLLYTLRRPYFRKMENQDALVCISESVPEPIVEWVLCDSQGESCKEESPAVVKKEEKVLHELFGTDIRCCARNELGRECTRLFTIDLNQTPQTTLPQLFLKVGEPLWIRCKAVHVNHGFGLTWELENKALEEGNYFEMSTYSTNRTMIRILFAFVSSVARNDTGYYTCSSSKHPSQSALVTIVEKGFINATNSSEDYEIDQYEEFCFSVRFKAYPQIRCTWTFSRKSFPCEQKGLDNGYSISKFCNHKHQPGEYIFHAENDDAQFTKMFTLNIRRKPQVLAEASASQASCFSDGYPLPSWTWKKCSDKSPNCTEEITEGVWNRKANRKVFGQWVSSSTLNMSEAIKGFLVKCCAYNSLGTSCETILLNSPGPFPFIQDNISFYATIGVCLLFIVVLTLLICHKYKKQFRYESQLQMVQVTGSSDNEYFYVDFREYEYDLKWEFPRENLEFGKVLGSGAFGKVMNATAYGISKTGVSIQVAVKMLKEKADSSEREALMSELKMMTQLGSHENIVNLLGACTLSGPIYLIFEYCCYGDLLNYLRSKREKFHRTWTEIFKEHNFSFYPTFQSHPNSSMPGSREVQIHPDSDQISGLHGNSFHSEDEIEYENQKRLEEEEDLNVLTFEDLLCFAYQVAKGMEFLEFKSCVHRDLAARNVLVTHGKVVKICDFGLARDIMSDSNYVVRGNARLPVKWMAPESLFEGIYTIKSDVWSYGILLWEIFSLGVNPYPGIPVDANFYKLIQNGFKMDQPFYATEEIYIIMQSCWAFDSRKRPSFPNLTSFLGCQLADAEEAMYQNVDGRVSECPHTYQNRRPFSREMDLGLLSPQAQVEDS
- experiment.summary: KINOMEscan kinase binding assay (Eurofins/DiscoveRx), % Ctrl
- test.conditions: 1 μM; target FLT3
- Procedure: Kinase binding assays were performed at Eurofins/DiscoveRx using the general KINOMEscan Protocol (Fabian, M. A. et al., “A small molecule-kinase interaction map for clinical kinase inhibitors,” Nat. Biotechnol. 2005, 23(3):329-36). For most assays, kinase-tagged T7 phage strains were prepared in an E. coli host derived from the BL21 strain. […] The kinase concentration in the eluates was measured by qPCR. […]

A selection of reference data follows.
- mol: "Cc1cc2c([nH]1)/C=C1\\C(=O)Nc3ccc(cc31)-c1cnn(C)c1OCCCN(C)C2=O"
  study.target: "kinases (Homo sapiens, UniProt P36888)"
  endpoint: "% Ctrl, FLT3"
  assay.result: "4.2 % Ctrl"
- mol: "Cc1cc2c([nH]1)/C=C1\\C(=O)Nc3cc(Cl)c(cc31)SCCOCCN(C)C2=O"
  study.target: "kinases (Homo sapiens, UniProt P36888)"
  endpoint: "% Ctrl, FLT3"
  assay.result: "1.8 % Ctrl"
- mol: "CN1CCOc2cc3c(cc2Cl)NC(=O)/C3=C\\c2[nH]ccc2C(=O)N(C)CC1"
  study.target: "kinases (Homo sapiens, UniProt P36888)"
  endpoint: "% Ctrl, FLT3"
  assay.result: "2.5 % Ctrl"
- mol: "Cc1cc2c([nH]1)/C=C1\\C(=O)Nc3cnc(cc31)-c1cnn(C)c1CN(C)CCN(C)C2=O"
  study.target: "kinases (Homo sapiens, UniProt P36888)"
  endpoint: "% Ctrl, FLT3"
  assay.result: "8.5 % Ctrl"

# next molecule below
Can you share its % Ctrl, FLT3? I mean this molecule: Cc1cc2c([nH]1)/C=C1\C(=O)Nc3ccc(cc31)-c1c(noc1C(C)C)COCCN(C)C2=O
100 % Ctrl
